Every entry's value here was drawn from PubChem BioAssay AID504351.

Catalogue of AC50 values
# Assay target: S. pyogenes UMAA2166, streptokinase activity in supernatant, OD405, 6 h
# Protocol summary: secreted streptokinase activity reduction in group A streptococci – OD405 absorbance, dry powder, set 3, dose response (AID 504351)
Inconclusive results are not listed.

Sample answers from the record:
| Smiles notation | Readout | Test value |
| --- | --- | --- |
| CCCOc1ccc(-c2nc(NC)c3ccccc3n2)cc1 | AC50 | 31.6 µM |
| CCCOc1ccc(-c2nc(OC(C)C)c3ccccc3n2)cc1 | AC50 | 37.5 µM |
| O=C(Nc1ccc(Sc2ccccc2)cc1)c1ccccc1Cl | AC50 | 44.4 µM |

Continue with the compound presented below.
Exercise: Kindly state the measured AC50 obtained for Cc1ccc(C(=O)n2c3ccccc3c3ccncc32)cc1 with S. pyogenes UMAA2166, streptokinase activity in supernatant, OD405, 6 h.
Solution: 40.9 µM
